Assay: chemical genetic growth profiling, strain panel (AID 1159580);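 note: tested at 20 µM; growth read once vehicle control cultures reached saturation at 30 °C; 1 = growth at the plate median or of vehicle wells; lower values mean less growth of the strain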
Conditions: S. cerevisiae deletion strains, growth OD, locus YHR142W, strain chs7, stronger effect = lower value
Among all 5,500 compounds or so, about 2,000 (36%) were called active. Inconclusive results (about 18%) are left out. Some of the results follow.
attribute measured: normalized growth

molecule	attribute measured	readout number
NS(=O)(=O)c1cc2c(cc1C(F)(F)F)NC(Cc1ccccc1)NS2(=O)=O (configuration not stated)	normalized growth	0.96
NC[C@@H]1O[C@H](O[C@@H]2[C@@H](CO)OC(O[C@@H]3[C@@H](O)[C@H](N)C[C@H](N)[C@H]3O[C@H]3O[C@H](CO)[C@@H](O)[C@H](O)[C@H]3N)[C@@H]2O)[C@H](N)[C@@H](O)[C@@H]1O (some centres not stated)	normalized growth	0.983
CC1=C2C(O)C(=O)OC3CC4C(C)(C)C(=O)C=C[C@]4(C)C(CC1)[C@]23C (some centres not stated)	normalized growth	1.01
CC1(C)O[C@@H]2CC3C4C[C@H](F)C5=CC(=O)CC[C@]5(C)C4[C@@H](O)C[C@]3(C)[C@]2(C(=O)CO)O1 (some centres not stated)	normalized growth	1
O=C(O)c1ccccc1O	normalized growth	0.997
Cc1ccccc1N1C(=O)c2cc(S(N)(=O)=O)c(Cl)cc2NC1C (configuration not stated)	normalized growth	0.969
O=S(=O)(O)O	normalized growth	0.961
O=C(/C=C(\O)c1ccccc1)c1ccccc1O	normalized growth	0.648
COC(=O)C(N)CS (configuration not stated)	normalized growth	1
CNC[C@H](O)c1cccc(O)c1	normalized growth	1
NC[C@H]1O[C@H](OC2[C@@H](N)C[C@@H](N)[C@H](O[C@H]3O[C@H](CO)[C@@H](O)[C@H](N)[C@H]3O)[C@H]2O)[C@H](O)[C@@H](O)[C@@H]1O (some centres not stated)	normalized growth	0.998
CC(C)c1cccc(O)c(=O)c1	normalized growth	0.0743
C[C@@H](CO)NC(=O)C1C=C2c3cccc4[nH]cc(c34)C[C@H]2N(C)C1 (some centres not stated)	normalized growth	0.99
COC(=O)N/N=C\c1c[n+]([O-])c2ccccc2[n+]1[O-]	normalized growth	0.988
NC(=O)c1ccccc1O	normalized growth	0.946
C=CCSC[C@@H](N)C(=O)O	normalized growth	0.978
COC(=O)[C@H]1[C@H]2C[C@H]3c4[nH]c5cc(OC)ccc5c4CCN3C[C@H]2C[C@@H](OC(=O)c2cc(OC)c(OC)c(OC)c2)[C@@H]1OC	normalized growth	1.01
COc1ccccc1N1CCN(CCCNc2cc(=O)n(C)c(=O)n2C)CC1	normalized growth	1.01
CC1Cc2ccccc2N1NC(=O)c1ccc(Cl)c(S(N)(=O)=O)c1 (configuration not stated)	normalized growth	0.994
C=CCSSSCC=C	normalized growth	0.981
C=CCSSCC=C	normalized growth	1.02
CC1=CC(=O)C2C(C)(C)CCC[C@]2(C)[C@@]1(O)CCc1ccoc1 (some centres not stated)	normalized growth	0.96

// provenance: PubChem BioAssay AID1159580
